Numbers sourced from ChEMBL document CHEMBL1961873.

Biological target: Dual specificity tyrosine-phosphorylation-regulated kinase 1A (Homo sapiens) (UniProt Q13627)
Conditions: at 1 µM
Description: GSK_PKIS: DYRK1A mean inhibition at 1 uM [Nanosyn]
What inhibition was measured for each of the following?
Answers are plain numbers, in %.

Please review the entries below; each comes with its answer.
C/C(Nc1ccc(S(N)(=O)=O)cc1)=C1/C(=O)Nc2ccccc21 :: 11.5
COc1cc(N2CCN(C(C)C)CC2)ccc1Nc1nc(Nc2ccc(F)cc2C(=O)NC[C@@H](O)CO)c2cc[nH]c2n1 :: 12.7
CN(C)CCCNc1nccc(-c2c(-c3ccc(F)cc3)nn3cc(C(F)(F)F)ccc23)n1 :: 1.55
CN(C)c1ccc2c(c1)/C(=C/Nc1ccc(S(N)(=O)=O)cc1)C(=O)N2 :: 33.4

Parameter requested: inhibition. Apply to each item below.
1. CCC(=O)Nc1ccc(C)c(-c2ccc(C(=O)NCC3CC3)cc2)c1
2. CS(=O)(=O)CCNCc1ccc(-c2ccc3ncnc(Nc4ccc(OCc5ccccc5)c(Br)c4)c3c2)o1
3. O=C(Nc1n[nH]c2nc(-c3ccc(O)cc3)c(Br)cc12)C1CC1

1: 3.18; 2: -2.54; 3: 55.5

###

Test system: Tyrosine-protein kinase ABL1 (Homo sapiens), P00519 [H396P]
Settings: at 0.1 µM
measure.name: inhibition
Answer with the figure and its unit, nothing else.

Some entries whose results are on file:
CN(C)c1ccc2c(c1)/C(=C/Nc1ccc(S(N)(=O)=O)cc1)C(=O)N2 :: 2.8%
Fc1ccc(-c2ncn(C3CCNCC3)c2-c2ccnc(Oc3ccc(Oc4ccccc4)cc3)n2)cc1 :: 2.93%
NC(=O)c1cc(-c2ccc(F)cc2)cc(-c2ccncc2)c1N :: 3.43%
Cc1ccc(NC(=O)c2ccoc2)cc1-c1ccc(C(=O)NCC2CC2)cc1 :: 3.08%
Cc1ccc(C(=O)NC(C)C)cc1-c1ccc(C(=O)NCC2CC2)cc1 :: -1.54%
COc1cc2ncn(-c3cc(OCc4cccs4)c(C(N)=O)s3)c2cc1OC :: 10.9%
CN(c1ccc(NC(=O)Nc2c(Cl)cccc2Cl)cc1)c1ccnc(Nc2cccc(CS(C)(=O)=O)c2)n1 :: 30%
C#Cc1cccc(Nc2ncnc3ccc(OCCCCNCCS(C)(=O)=O)cc23)c1 :: 7.05%
O=C(Nc1n[nH]c2nc(-c3ccco3)ccc12)C1CC1 :: 3.89%
CNC(=O)c1cncc(/C=C/c2c(C)cccc2C)c1 :: 17.2%

Provide the reported inhibition of each entry below, same order.
1. COc1ccc2cc(-c3c(-c4ccncc4)nc(-c4ccc(S(C)(=O)=O)cc4C)n3C)ccc2c1
2. CS(=O)(=O)CCNCc1ccc(-c2ccc3ncnc(Nc4ccc(OCc5ccccc5)c(Br)c4)c3c2)o1
3. O=C(Nc1n[nH]c2cc(-c3cc(F)ccc3F)ccc12)C1CC1
4. CCc1cccc(CC)c1/C=C/c1cncc(C(=O)NC)c1

["5.32%", "4.48%", "13.8%", "7.45%"]

###

Target: Hepatocyte growth factor receptor (Homo sapiens);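 note: each value is an averaged inhibition figure for MET, taken as the mean across measurements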
Conditions: at 1 µM
Exercise: for every item that follows, state its recorded inhibition.
Give bare numbers, in %.

Recorded inhibition, per entry:
COc1cc2ncn(-c3cc(OCCc4ccccc4)c(C(N)=O)s3)c2cc1OC :: 5.5
CN(C)CCOc1ccc(-c2cc(-c3ccc4c(c3)CCC4=NO)c(-c3ccncc3)o2)cc1 :: 5.81
CN(C)CCCNc1nccc(-c2c(-c3ccc(F)cc3)nn3cc(C(F)(F)F)ccc23)n1 :: 10.6
Fc1ccc(-c2c(-c3ccncc3)nc3n2CCS3)cc1 :: 0.39
NS(=O)(=O)c1ccc(Nc2cc(-c3ccc(O)c(F)c3)n[nH]2)cc1 :: -2.91
c1ccc(-c2n[nH]cc2-c2ccnc(-c3ccc(OCCN4CCOCC4)cc3)c2)nc1 :: 5.59

Your task in this section: give inhibition for each listed record.
1. Clc1ccc(CNc2nccc(-c3cnn4ncccc34)n2)cc1
2. COc1cc(Nc2ncc3c(C)nc(-c4cccc(C(F)(F)F)c4)n3n2)cc(OC)c1OC
3. CCc1nccc2c1nc(-c1nonc1N)n2CC
4. COc1cccc(/C=N/Nc2ncnc3c2cnn3-c2cccc(OC)c2)c1
5. Fc1ccc(-c2ncn(C3CCNCC3)c2-c2ccnc(Oc3ccc4c(c3)OCO4)n2)cc1
6. Cc1ccc(C(=O)NC2CCC2)cc1-c1ccc(C(=O)NCC2CC2)cc1
7. NC(=O)c1cc(-c2ccc(F)cc2)cc(-c2ccncc2)c1N

[7.73, 9.19, 2.39, 9.96, 7.4, 6.08, 8.57]
